- assay-remarks: enhancers of HDL lipid transfer via mSR-BI – ldlA[mSR-BI] CHO cells, DiI fluorescence, primary screen (AID 504775);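 further: 0% = median plate neutral-control signal and 100% = twice that signal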
- experimental-context: DiI-HDL uptake fluorescence, 3 h, at 12.5 µM, stronger effect = higher value, 100 = double the neutral-control signal
Out of some 320,000 compounds screened, about 310 (0.097%) were called active. This excerpt belongs to a sample that is enriched for actives.
Provide the recorded activation for the entries that follow.
Answers are plain numbers, in %.

Here is how some molecules turned out for activation.
molecule	activation, %
COc1cc(C(=O)N2CCN(S(=O)(=O)c3ccc(C(C)C)cc3)CC2)ccc1OCC(=O)N1CCOCC1	10.9
O=C(NCCc1ccccc1)c1ccc(NC2=NC3CS(=O)(=O)CC3S2)cc1 (centres undefined)	85.7
CN(Cc1ccccc1)C(=O)c1ccc(NC2=NC3CS(=O)(=O)CC3S2)cc1 (centres undefined)	-2.73
COc1ccc(CC(=O)N[C@@H]2c3cc(OC)c(OC)cc3C[C@H]2OCc2ccccc2)cc1	-26.8
Nc1cc(=O)n(Cc2ccccc2)c(=O)n1Cc1ccccc1	-0.22

Hi team, please reply with activation for each item in this list.
1. CCOC(=O)CCC(NC(=O)c1ccc(CNc2nc3cc(C(F)(F)F)ccc3nc2C(=O)OCC)cc1)C(=O)OCC (centres undefined)
2. COc1ccccc1N1CCN(C(=O)c2ccc(NC3=NC4CS(=O)(=O)CC4S3)cc2)CC1 (centres undefined)
3. CN(C(=O)c1cccc(NC(=O)Cc2ccc(NC(=O)C3CCCN(C(=O)C4CCCC4)C3)cc2)c1)C1CCC1 (centres undefined)

[-43.7, 14.4, -86.9]

Any idea what its activation is? The molecule is COc1ccc(NC(=O)/C(N=Nc2cccc(S(=O)(=O)Nc3ccc(SC(F)F)cc3)c2)=C(\C)O)cc1
19.4
